experiment: Tmax in Sprague-Dawley rat at 1 mg/kg, iv by LC-MS/MS method; type: ADME, organism-based; conditions: in vivo
quantity: Tmax (min)

[[record]]
smiles_representation = "C=CC(=O)Nc1cc(Nc2cc(-c3cccc(NC(=O)c4cc5c(s4)CCCC5)c3C)cn(C)c2=O)ccc1C(=O)N1CCOCC1"
measurement = 1.02

[[record]]
smiles_representation = "C=CC(=O)Nc1cc(Nc2cc(-c3cccc(NC(=O)c4ccc(N(C)C)cc4)c3C)cn(C)c2=O)ccc1C(=O)N1CCOCC1"
measurement = 1.02

[[record]]
smiles_representation = "C=CC(=O)Nc1cc(Nc2cc(-c3cccc(NC(=O)c4ccc(C(C)(C)C)cc4)c3C)cn(C)c2=O)ccc1C(=O)N1CCOCC1"
measurement = 1.02


###

assay: Elimination half-life in Sprague-Dawley rat at 10 mg/kg, po by LC-MS/MS method; assay type: ADME, organism-based; settings: in vivo, read-out: beta t1/2 (converted)
Form field: half-life (one value per entry).
quantity: half-life (h)

[[record]]
smiles_representation = "C=CC(=O)Nc1cc(Nc2cc(-c3cccc(NC(=O)c4ccc(C(C)(C)C)cc4)c3C)cn(C)c2=O)ccc1C(=O)N1CCOCC1"
measurement_unit = "h"
measurement = 1.33

[[record]]
smiles_representation = "C=CC(=O)Nc1cc(Nc2cc(-c3cccc(NC(=O)c4ccc(N(C)C)cc4)c3C)cn(C)c2=O)ccc1C(=O)N1CCOCC1"
measurement_unit = "h"
measurement = 7.87

[[record]]
smiles_representation = "C=CC(=O)Nc1cc(Nc2cc(-c3cccc(NC(=O)c4cc5c(s4)CCCC5)c3C)cn(C)c2=O)ccc1C(=O)N1CCOCC1"
measurement_unit = "h"
measurement = 3.87


###

experiment: AUC (0 to t) in Sprague-Dawley rat at 1 mg/kg, iv by LC-MS/MS method; type: ADME, organism-based; details: in vivo
quantity: AUC(0-t) (ng·h/mL)

[[record]]
smiles_representation = "C=CC(=O)Nc1cc(Nc2cc(-c3cccc(NC(=O)c4ccc(C(C)(C)C)cc4)c3C)cn(C)c2=O)ccc1C(=O)N1CCOCC1"
measurement = 182

[[record]]
smiles_representation = "C=CC(=O)Nc1cc(Nc2cc(-c3cccc(NC(=O)c4cc5c(s4)CCCC5)c3C)cn(C)c2=O)ccc1C(=O)N1CCOCC1"
measurement = 1560

[[record]]
smiles_representation = "C=CC(=O)Nc1cc(Nc2cc(-c3cccc(NC(=O)c4ccc(N(C)C)cc4)c3C)cn(C)c2=O)ccc1C(=O)N1CCOCC1"
measurement = 317


###

test system: OCI-AML-3; assay: Growth inhibition of human OCI-AML3 cells; format: functional; conditions: Homo sapiens, OCI-AML-3
quantity: GI50 (µM)

[[record]]
smiles_representation = "C=CC(=O)Nc1cc(Nc2cc(-c3cccc(NC(=O)c4ccc(C(C)(C)C)cc4)c3C)cn(C)c2=O)ccc1C(=O)N1CCOCC1"
quantity = "GI50"
measurement_unit = "µM"
measurement = 3.8

[[record]]
smiles_representation = "CCC(=O)Nc1cc(Nc2cc(-c3cccc(NC(=O)c4ccc(C(C)(C)C)cc4)c3C)cn(C)c2=O)ccc1C(=O)N1CCOCC1"
quantity = "GI50"
measurement_unit = "µM"
measurement = 9.5

[[record]]
smiles_representation = "C=CC(=O)Nc1cc(Nc2cc(-c3cccc(NC(=O)c4cc5c(s4)CCCC5)c3C)cn(C)c2=O)ccc1C(=O)N1CCOCC1"
quantity = "GI50"
measurement_unit = "µM"
measurement = 2.3

[[record]]
smiles_representation = "C=CC(=O)Nc1cc(Nc2cc(-c3cccc(NC(=O)c4ccc(N(C)C)cc4)c3C)cn(C)c2=O)ccc1C(=O)N1CCOCC1"
quantity = "GI50"
measurement_unit = "µM"
measurement = 2.6


###

assay: Cmax in Sprague-Dawley rat at 10 mg/kg, po by LC-MS/MS method; assay type: ADME, organism-based; set-up: dose 10 mg/kg, route oral; settings: in vivo
quantity: Cmax (ng/mL)

[[record]]
smiles_representation = "C=CC(=O)Nc1cc(Nc2cc(-c3cccc(NC(=O)c4ccc(C(C)(C)C)cc4)c3C)cn(C)c2=O)ccc1C(=O)N1CCOCC1"
measurement = 32.8

[[record]]
smiles_representation = "C=CC(=O)Nc1cc(Nc2cc(-c3cccc(NC(=O)c4ccc(N(C)C)cc4)c3C)cn(C)c2=O)ccc1C(=O)N1CCOCC1"
measurement = 144

[[record]]
smiles_representation = "C=CC(=O)Nc1cc(Nc2cc(-c3cccc(NC(=O)c4cc5c(s4)CCCC5)c3C)cn(C)c2=O)ccc1C(=O)N1CCOCC1"
measurement = 1120


###

Form field: AUC(0-inf) (one value per entry).
test: AUC (0 to infinity) in Sprague-Dawley rat at 10 mg/kg, po by LC-MS/MS method; format: ADME, organism-based; set-up: dose 10 mg/kg, route oral, time infinity; details: in vivo
quantity: AUC(0-inf)

[[record]]
smiles_representation = "C=CC(=O)Nc1cc(Nc2cc(-c3cccc(NC(=O)c4ccc(N(C)C)cc4)c3C)cn(C)c2=O)ccc1C(=O)N1CCOCC1"
quantity = "AUC(0-inf)"
measurement = "291 ng·h/mL"

[[record]]
smiles_representation = "C=CC(=O)Nc1cc(Nc2cc(-c3cccc(NC(=O)c4cc5c(s4)CCCC5)c3C)cn(C)c2=O)ccc1C(=O)N1CCOCC1"
quantity = "AUC(0-inf)"
measurement = "1900 ng·h/mL"

[[record]]
smiles_representation = "C=CC(=O)Nc1cc(Nc2cc(-c3cccc(NC(=O)c4ccc(C(C)(C)C)cc4)c3C)cn(C)c2=O)ccc1C(=O)N1CCOCC1"
quantity = "AUC(0-inf)"
measurement = "34.5 ng·h/mL"


###

assay: Elimination half-life in Sprague-Dawley rat at 1 mg/kg, iv by LC-MS/MS method; type: ADME, organism-based; conditions: in vivo, read-out: beta t1/2 (converted)
quantity: half-life (min)

[[record]]
smiles_representation = "C=CC(=O)Nc1cc(Nc2cc(-c3cccc(NC(=O)c4ccc(C(C)(C)C)cc4)c3C)cn(C)c2=O)ccc1C(=O)N1CCOCC1"
quantity = "half-life"
measurement = 13.8

[[record]]
smiles_representation = "C=CC(=O)Nc1cc(Nc2cc(-c3cccc(NC(=O)c4cc5c(s4)CCCC5)c3C)cn(C)c2=O)ccc1C(=O)N1CCOCC1"
quantity = "half-life"
measurement = 36.5

[[record]]
smiles_representation = "C=CC(=O)Nc1cc(Nc2cc(-c3cccc(NC(=O)c4ccc(N(C)C)cc4)c3C)cn(C)c2=O)ccc1C(=O)N1CCOCC1"
quantity = "half-life"
measurement = 14.4


###

tested on: Pfeiffer; assay: Growth inhibition of human Pfeiffer cells; type: functional; conditions: Homo sapiens, Pfeiffer
quantity: GI50 (µM)

[[record]]
smiles_representation = "CCC(=O)Nc1cc(Nc2cc(-c3cccc(NC(=O)c4ccc(C(C)(C)C)cc4)c3C)cn(C)c2=O)ccc1C(=O)N1CCOCC1"
quantity = "GI50"
censoring_qualifier = ">"
measurement = 10

[[record]]
smiles_representation = "C=CC(=O)Nc1cc(Nc2cc(-c3cccc(NC(=O)c4ccc(C(C)(C)C)cc4)c3C)cn(C)c2=O)ccc1C(=O)N1CCOCC1"
quantity = "GI50"
censoring_qualifier = "="
measurement = 4.5

[[record]]
smiles_representation = "C=CC(=O)Nc1cc(Nc2cc(-c3cccc(NC(=O)c4ccc(N(C)C)cc4)c3C)cn(C)c2=O)ccc1C(=O)N1CCOCC1"
quantity = "GI50"
censoring_qualifier = "="
measurement = 9

[[record]]
smiles_representation = "C=CC(=O)Nc1cc(Nc2cc(-c3cccc(NC(=O)c4cc5c(s4)CCCC5)c3C)cn(C)c2=O)ccc1C(=O)N1CCOCC1"
quantity = "GI50"
censoring_qualifier = "="
measurement = 3.5


###

assay: MRT (0 to t) in Sprague-Dawley rat at 10 mg/kg, po by LC-MS/MS method; format: ADME, organism-based; details: in vivo
quantity: MRT last (h)

[[record]]
smiles_representation = "C=CC(=O)Nc1cc(Nc2cc(-c3cccc(NC(=O)c4ccc(C(C)(C)C)cc4)c3C)cn(C)c2=O)ccc1C(=O)N1CCOCC1"
measurement = 1.36

[[record]]
smiles_representation = "C=CC(=O)Nc1cc(Nc2cc(-c3cccc(NC(=O)c4cc5c(s4)CCCC5)c3C)cn(C)c2=O)ccc1C(=O)N1CCOCC1"
measurement = 2.34

[[record]]
smiles_representation = "C=CC(=O)Nc1cc(Nc2cc(-c3cccc(NC(=O)c4ccc(N(C)C)cc4)c3C)cn(C)c2=O)ccc1C(=O)N1CCOCC1"
measurement = 3.39


###

Target: UniProt:P52333
Sequence (P52333 whole entry): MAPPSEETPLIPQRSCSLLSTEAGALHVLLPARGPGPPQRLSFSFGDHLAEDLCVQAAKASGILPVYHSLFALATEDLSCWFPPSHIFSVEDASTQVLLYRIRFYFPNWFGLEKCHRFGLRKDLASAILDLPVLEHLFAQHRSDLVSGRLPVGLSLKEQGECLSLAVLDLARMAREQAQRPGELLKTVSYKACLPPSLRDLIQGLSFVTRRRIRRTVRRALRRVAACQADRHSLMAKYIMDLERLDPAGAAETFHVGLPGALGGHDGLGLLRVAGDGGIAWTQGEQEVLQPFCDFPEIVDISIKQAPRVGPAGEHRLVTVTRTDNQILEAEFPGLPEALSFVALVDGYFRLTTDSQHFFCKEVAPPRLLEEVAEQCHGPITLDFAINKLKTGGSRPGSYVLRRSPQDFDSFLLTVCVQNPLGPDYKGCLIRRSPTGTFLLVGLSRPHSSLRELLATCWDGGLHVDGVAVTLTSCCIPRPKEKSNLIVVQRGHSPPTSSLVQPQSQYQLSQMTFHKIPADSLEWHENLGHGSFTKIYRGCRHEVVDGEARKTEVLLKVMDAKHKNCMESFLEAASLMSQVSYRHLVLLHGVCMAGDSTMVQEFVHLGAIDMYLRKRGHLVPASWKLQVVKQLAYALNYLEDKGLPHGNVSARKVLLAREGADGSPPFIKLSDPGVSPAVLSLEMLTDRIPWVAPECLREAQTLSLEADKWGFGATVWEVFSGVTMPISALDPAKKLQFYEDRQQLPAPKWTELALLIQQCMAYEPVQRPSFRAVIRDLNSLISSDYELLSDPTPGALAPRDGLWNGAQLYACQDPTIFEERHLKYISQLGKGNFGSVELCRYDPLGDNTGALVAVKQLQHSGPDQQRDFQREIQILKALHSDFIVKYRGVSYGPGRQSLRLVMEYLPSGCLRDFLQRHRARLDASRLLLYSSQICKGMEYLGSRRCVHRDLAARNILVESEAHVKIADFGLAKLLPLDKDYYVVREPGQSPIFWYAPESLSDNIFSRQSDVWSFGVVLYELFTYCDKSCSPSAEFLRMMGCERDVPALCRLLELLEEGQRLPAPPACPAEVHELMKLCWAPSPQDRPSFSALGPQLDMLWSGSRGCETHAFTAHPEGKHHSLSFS
Experiment: Inhibition of recombinant human N-terminal GST-tagged JAK3 (781 to end residues) expressed in baculovirus infected Sf9 insect cells using poly (Glu,Tyr)4:1 as substrate pretreated for 60 mins followed by substrate addition after 1 hr by ADP-Glo luminescence assay
pIC50: −log10 of the molar value.
quantity: pIC50

[[record]]
smiles_representation = "C=CC(=O)Nc1cccc(Nc2ncc(NC(=O)c3cc(NC(=O)c4cccc(C(F)(F)F)c4)ccc3C)cn2)c1"
measurement = 5.77

[[record]]
smiles_representation = "C=CC(=O)Nc1cc(Nc2cc(-c3cccc(NC(=O)c4cc5c(s4)CCCC5)c3C)cn(C)c2=O)ccc1C(=O)N1CCOCC1"
measurement = 5.99

[[record]]
smiles_representation = "C=CC(=O)Nc1cc(Nc2cc(-c3cccc(NC(=O)c4ccc(N(C)C)cc4)c3C)cn(C)c2=O)ccc1C(=O)N1CCOCC1"
measurement = 5.70

[[record]]
smiles_representation = "C=CC(=O)N1CCc2ccc(-n3c(=O)ccc4cnc5ccc(-c6cnn(C)c6)cc5c43)cc21"
measurement = 5.48

